All figures here come from paper PMC6478789.

// HATs Activity (%) lookup, one value per entry
# system: MYST1 (Homo sapiens, UniProt Q9H7Z6)
# Sequence (Q9H7Z6 whole entry, species assumed): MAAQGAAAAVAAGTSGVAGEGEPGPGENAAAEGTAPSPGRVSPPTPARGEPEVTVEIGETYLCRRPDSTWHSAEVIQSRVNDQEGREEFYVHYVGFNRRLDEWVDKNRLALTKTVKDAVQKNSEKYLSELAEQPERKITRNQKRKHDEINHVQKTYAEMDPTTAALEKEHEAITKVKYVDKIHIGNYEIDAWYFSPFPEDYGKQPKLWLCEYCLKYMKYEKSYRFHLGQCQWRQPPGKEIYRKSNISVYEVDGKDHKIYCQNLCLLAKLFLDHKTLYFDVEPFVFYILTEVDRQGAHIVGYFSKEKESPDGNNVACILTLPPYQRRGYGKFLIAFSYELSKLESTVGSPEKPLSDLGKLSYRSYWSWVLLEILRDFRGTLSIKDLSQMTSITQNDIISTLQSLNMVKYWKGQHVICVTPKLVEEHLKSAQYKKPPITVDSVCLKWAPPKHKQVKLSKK
# protocol_summary: Histone acetyltransferase (HAT) activity assay;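 note: selectivity screen across a panel of histone acetyltransferases, with compounds tested at 1 and 10 µM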
# Format: biochemical
# experimental_conditions: 1µM

Example results:
compound_structure	HATs Activity (%)
CCn1cc(-c2cccc(C(F)(F)F)c2)c2sc(C(=N)NC3CCS(=O)(=O)CC3)cc2c1=O	104%
COc1ccccc1S(=O)(=O)Nc1ccc2c(c1)CN(C)C(=O)N2	101%
COc1ccccc1C(=O)Nc1cc2c(cc1N1CCNC[C@H]1C)n(C)c(=O)n2C	99%
COc1cc(C#N)ccc1S(=O)(=O)Nc1ccc2c(c1)cc(C)c(=O)n2C	96%
COc1cc2c(cc1NS(=O)(=O)c1ccc(Br)cc1C)n(C)c(=O)n2C	102%

Attention now turns to another entry.
**Query** Please look at this compound and report its HATs Activity (%): "Cc1cc(=O)n(C)c2cc(N3C(=O)CC[C@H](NS(=O)(=O)CC(C)C)[C@H]3c3ccc(Cl)cc3)ccc12"
**Result** 90%
